Target: human CD33 on primary human dendritic cells (human, UniProt P20138 18-364)
Sequence (P20138 18-364): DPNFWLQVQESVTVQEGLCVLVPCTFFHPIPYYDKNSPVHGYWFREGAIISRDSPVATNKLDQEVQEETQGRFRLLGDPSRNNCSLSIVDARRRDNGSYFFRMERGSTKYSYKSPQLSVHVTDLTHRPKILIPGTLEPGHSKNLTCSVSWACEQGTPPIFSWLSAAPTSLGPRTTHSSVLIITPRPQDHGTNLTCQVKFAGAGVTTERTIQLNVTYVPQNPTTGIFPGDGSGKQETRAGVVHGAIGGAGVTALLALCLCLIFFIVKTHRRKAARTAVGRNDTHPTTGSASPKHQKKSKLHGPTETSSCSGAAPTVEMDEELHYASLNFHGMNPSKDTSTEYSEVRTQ
Assay: cell-based or functional assay
REPORTED_ENDPOINT: Fold increase in potency compared to 6C7H5 (fold)

1. anti-CD33 antibody 6C7H36 (antibody, V domains shown, VH/VL only) VH: EVQLVESGGGLVQPGGSLRLSCAASGFTFSEYAMLWVRQAPGKGLEWVGEIRLKSNNYVTNYAASVKGRFTISRDDSKNSVYLQMNSLKTEDTGVYYCTRAGYYVPFTYWGQGTLVTVSS VL: QLMLTQSPSASASLGASVKLTCTLSSQHSTYTIEWYQQQPGKGPRYLMELKKEGSHSTGDGIPDRFSGSSSGAERYLTISSLQSEDEADYYCGVGHTIKEQFVYEFGGGTKLTVL | 0.9
2. anti-CD33 antibody 6C7H31 (antibody, V domains shown, VH/VL only) VH: EVQLVESGGGLVQPGGSLRLSCAASGSTFSEYDMLWVRQAPGKGLEWVGEIRLKSNNYVTNYAASVKGRFTISRDDSKNSVYLQMNSLKTEDTGVYYCTRAGYYVPFAYWGQGTLVTVSS VL: QPVLTQSPSASASLGASVKLTCTLSSQHSTYTIEWYQQQPEKGPRYLMELKKEGSHSTGDGIPDRFSGSSSGAERYLTISSLQSEDEADYYCGVGVTIKEQFVYVFGGGTKLTVL | 0.6
3. anti-CD33 antibody 6C7H33 (antibody, V domains shown, VH/VL only) VH: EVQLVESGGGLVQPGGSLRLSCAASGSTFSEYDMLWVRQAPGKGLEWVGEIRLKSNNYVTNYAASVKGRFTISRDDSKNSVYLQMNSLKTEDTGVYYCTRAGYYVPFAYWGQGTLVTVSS VL: QLMLTQSPSASASLGASVKLTCTLSSQHSTYTIEWYQQQPGKGPRYLMELKKEGSHSTGDGIPDRFSGSSSGAERYLTISSLQSEDEADYYCGVGHTIKEQFVYVFGGGTKLTVL | 0.8
4. anti-CD33 antibody 6C7H43 (antibody, V domains shown, VH/VL only) VH: EVQLVESGGGLVQPGGSLRLSCAASGFTFSEYDMLWVRQAPGKGLEWVGEIRLKSNNYVTNYAASVKGRFTISRDDSKNSVYLQMNSLKTEDTGVYYCTRAGYYVPFAYWGQGTLVTVSS VL: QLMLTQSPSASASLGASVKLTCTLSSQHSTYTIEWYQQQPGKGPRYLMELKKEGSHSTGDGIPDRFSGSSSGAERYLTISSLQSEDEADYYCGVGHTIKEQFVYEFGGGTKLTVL | 0.9
5. anti-CD33 antibody 6C7H34 (antibody, V domains shown, VH/VL only) VH: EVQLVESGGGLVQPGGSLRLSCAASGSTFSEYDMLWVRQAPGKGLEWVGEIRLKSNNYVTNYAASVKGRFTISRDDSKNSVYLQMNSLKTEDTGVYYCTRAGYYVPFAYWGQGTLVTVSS VL: QPMLTQSPSASASLGASVKLTCTLSSQHSTYTIEWYQQQPGKGPRYLMELKKEGSHSTGDGIPDRFSGSSSGAERYLTISSLQSEDEADYYCGVGLTIKEQFVYVFGGGTKLTVL | 0.7
6. anti-CD33 antibody 6C7H42 (antibody, V domains shown, VH/VL only) VH: EVQLVESGGGLVQPGGSLRLSCAASGFTFSEYDMLWVRQAPGKGLEWVGEIRLKSNNYVTNYAASVKGRFTISRDDTKNSVYLQMNSLKTEDTGVYYCTRAGYYVPFAYWGQGTLVTVSS VL: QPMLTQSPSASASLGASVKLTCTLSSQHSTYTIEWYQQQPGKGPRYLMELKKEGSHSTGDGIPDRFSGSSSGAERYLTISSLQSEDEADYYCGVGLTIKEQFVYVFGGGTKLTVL | 1.1
7. anti-CD33 antibody 6C7H45 (antibody, V domains shown, VH/VL only) VH: EVQLVESGGGLVQPGGSLRLSCAASGFTFSEYAMLWVRQAPGKGLEWVGEIRLKSNNYVTNYAASVKGRFTISRDDSKNSVYLQMNSLKTEDTGVYYCTRAGYYVPFAYWGQGTLVTVSS VL: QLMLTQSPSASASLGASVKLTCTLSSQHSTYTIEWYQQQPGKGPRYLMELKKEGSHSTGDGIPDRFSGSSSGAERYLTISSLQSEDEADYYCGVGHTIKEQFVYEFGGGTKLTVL | 1
8. anti-CD33 antibody 6C7H53 (antibody, V domains shown, VH/VL only) VH: EVQLVESGGGLVQPGGSLRLSCAGSGFTFSNYEMNWVRQAPGKGLEWVAEIRLKSNNYVTNYAASVKGRFTISRDDSKNSVYLQMNSLKTEDTGVYYCTRAGYYVPFAYWGQGTLVTVSS VL: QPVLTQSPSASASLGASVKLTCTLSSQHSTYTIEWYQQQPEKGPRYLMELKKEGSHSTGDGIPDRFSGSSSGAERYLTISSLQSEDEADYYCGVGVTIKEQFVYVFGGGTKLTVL | 1.2
9. anti-CD33 antibody 6C7H38 (antibody, V domains shown, VH/VL only) VH: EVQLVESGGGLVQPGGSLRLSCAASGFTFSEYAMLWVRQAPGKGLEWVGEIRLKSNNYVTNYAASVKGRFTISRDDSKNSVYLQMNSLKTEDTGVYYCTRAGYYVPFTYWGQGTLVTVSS VL: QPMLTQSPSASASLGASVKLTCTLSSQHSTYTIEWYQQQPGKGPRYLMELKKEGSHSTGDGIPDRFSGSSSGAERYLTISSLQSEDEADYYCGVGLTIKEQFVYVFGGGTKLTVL | 1.6
10. anti-CD33 antibody 6C7H54 (antibody, IgG1, V domains shown, VH/VL only; also called 6C7H54 IgG1; 6C754) VH: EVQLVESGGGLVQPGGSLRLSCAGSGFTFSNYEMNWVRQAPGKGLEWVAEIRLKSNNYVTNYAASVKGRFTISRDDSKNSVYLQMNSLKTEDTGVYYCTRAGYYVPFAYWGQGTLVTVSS VL: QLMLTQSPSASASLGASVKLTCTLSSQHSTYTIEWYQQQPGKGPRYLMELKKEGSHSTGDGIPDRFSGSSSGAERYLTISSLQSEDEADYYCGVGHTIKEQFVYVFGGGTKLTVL | 1.2
11. anti-CD33 antibody 6C7H37 (antibody, V domains shown, VH/VL only) VH: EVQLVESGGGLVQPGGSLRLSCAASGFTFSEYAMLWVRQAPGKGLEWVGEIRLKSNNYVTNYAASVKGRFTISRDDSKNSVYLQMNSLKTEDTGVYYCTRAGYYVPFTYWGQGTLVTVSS VL: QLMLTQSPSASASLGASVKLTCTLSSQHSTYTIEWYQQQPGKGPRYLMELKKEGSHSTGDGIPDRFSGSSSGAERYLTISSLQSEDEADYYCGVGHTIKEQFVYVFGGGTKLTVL | 0.7

Reference for the values: patent US20250270319A1
